Target: T1, 6His–Evasin-4 (Rhipicephalus sanguineus, UniProt P0C8E9 24-127)
T1 sequence: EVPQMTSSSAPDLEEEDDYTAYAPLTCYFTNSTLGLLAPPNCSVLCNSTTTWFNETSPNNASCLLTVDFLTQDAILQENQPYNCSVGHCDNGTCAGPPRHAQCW
Test: SPR
Listed here: items and their measured Kd.
Property label: Kd

> print(dat)
                                     binder  property.label  obs.value
1  CCL18 (ligand) AQVGTNKELCCLVYTSWQIPQKFIVDYSETSPQCPKPGVILLTKRGRQICADPNKKWVQKYISDLKLNA              Kd    0.03 nM
2  CCL3 (ligand) SLAADTPTACCFSYTSRQIPQNFIADYFETSSQCSKPGVIFLTKRSRQVCADPSEEWVQKYVSDLELSA              Kd    0.06 nM
3  CCL5 E26A (ligand) SPYSSDTTPCCFAYIARPLPRAHIKAYFYTSGKCSNPAVVFVTRKNRQVCANPEKKWVREYINSLEMS              Kd    0.09 nM
4  CCL19 (ligand) GTNDAEDCCLSVTQKPIPGYIVRNFHYLLIKDGCRVPAVVFTTLRGRQLCAPPDQPWVERIIQRLQRTSAKMKRRSS              Kd    0.14 nM

All figures here come from paper PMC4240464.
